Target: T1, SH2 domain of Crkl protein (residues 1-111), H33A variant (UniProt P46109 1-111, H33A)
T1 construct: Crkl adaptor protein, SH2 domain, residues 1-111, His33 replaced by alanine; Site-directed mutant of m1 (QuikChange); source: E. coli BL21 (DE3), purified (HisTrap nickel column, desalting); not shown: His tag, N-terminal, kept
T1 sequence (P46109 1-111 H33A): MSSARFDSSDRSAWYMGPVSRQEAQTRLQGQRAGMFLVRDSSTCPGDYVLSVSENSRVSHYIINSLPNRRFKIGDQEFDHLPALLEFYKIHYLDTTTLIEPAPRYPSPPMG
Experiment: stopped-flow fluorescence kinetics (FRET); dansyl-Pax112-123 constant at 2 μM mixed with Crkl-SH2 2 to 10 μM (pseudo-first-order, kon); koff by displacement of the preincubated 2 µM complex with excess non-dansylated Pax112-123 (30 μM); 283 K; 50 mM BisTRIS pH 6.8, 0.5 M NaCl
Conditions: both partners purified
Square brackets hold non-standard residues; d marks the D form. Ends that are not written are not given here. * marks the point of attachment. pY = N[C@@H](Cc1ccc(OP(=O)(O)O)cc1)C(=O)O; Dansyl = CN(C)c1cccc2c(S(=O)(=O)*)cccc12

Binder: Dansyl-GEEEHV[pY]SFPNK (The dansyl group is the FRET acceptor of Trp14 of the SH2 domain; source: synthetic peptide, bought: GenScript) [dansylated Pax_(112–123) peptide (Dans-GEEEHV-pY-SFPNK)]
Units Of Measure: µM
Kd: 3.4
